Test system: HCC 2998
experiment-description: NCI tumour cell line growth inhibition, 48 h
Active and inactive are the calls of the source. No stated cut-off is given here; in the data, active = GI50 up to about 1.1 µM and inactive = higher.
GI50 values for the compounds below.
experimental-readout: GI50

INSERT INTO measurements (compound, experimental_readout, recorded_value) VALUES
  ('COc1cc(OC)c2c3c(OC)cc(OC)c4c(=O)c(O)c(C[C@@H](C)O)c(c5c(C[C@@H](C)O)c(O)c(=O)c1c25)c43', 'GI50', '16.3 µM (inactive)'),
  ('COc1ccc(/C=c2\sc3n(c2=O)CCN=3)cc1', 'GI50', '62.4 µM (inactive)'),
  ('COc1ccc(NC(=O)CC(=O)n2nc(C)c(/N=N/c3ccc(C)c(C)c3)c2C)cc1', 'GI50', '> 100 µM (inactive)'),
  ('Nc1ccc2c(=O)cc(-c3ccc(Br)s3)[nH]c2n1', 'GI50', '3.39 µM (inactive)'),
  ('Cc1ccc(C(=O)N2c3ccccc3N(C)n3cccc3C2CC(=O)O)cc1 (stereo not drawn)', 'GI50', '> 100 µM (inactive)'),
  ('O=C(O)CC1NC(/C(=C/c2ccccc2)NC(=O)c2ccccc2)OC1=O (stereo not drawn)', 'GI50', '37.9 µM (inactive)'),
  ('O=C1C[S+]([O-])c2ccccc2N1 (stereo not drawn)', 'GI50', '> 100 µM (inactive)'),
  ('C=C1C(=O)OC2/C=C(\COC(C)=O)CCC(OC(C)=O)C3=CC(OC3=O)C12 (stereo not drawn)', 'GI50', '14.4 µM (inactive)');

---

Test system: CCRF-CEM
experiment-description: NCI tumour cell line growth inhibition, 48 h
Calls of active or inactive are those of the source. Cut-off read from the data, not from the text of the source: active = GI50 up to about 1.1 µM and inactive = higher.
experimental-readout: GI50

INSERT INTO measurements (compound, recorded_value) VALUES
  ('C=C(C)[C@@]1(O)O[C@H]2C[C@@]3(C)OC(=CC3=O)/C(C)=C\[C@@H]3OC(=O)[C@@]1(C)[C@H]32', '3.94 µM (inactive)'),
  ('CC1CCC2C(C)C(OC(=O)CCC(=O)O)OC3OC4(C)CCC1C32OO4 (centres undefined)', '3.78 µM (inactive)'),
  ('c1ccc(-n2cnnc2-c2nsc3ccccc23)cc1', '> 100 µM (inactive)'),
  ('O=C(NNC(=S)Nc1cccc(Cl)c1)c1cc(-c2ccccc2)nc2ccccc12', '10.2 µM (inactive)'),
  ('S=c1ssc2c3ssc(=S)c3n(Cc3ccccc3)c12', '17.2 µM (inactive)'),
  ('COC1CC(O[C@H]2CC[C@@]3(C)C(=CCC4(O)C3CCC35C(=O)OC6(C)O[C@@]43CCC65)C2)OC(C)C1O (some centres undefined)', '> 100 µM (inactive)'),
  ('N#CC(C(=O)CCCC(=O)Nc1ccccc1[N+](=O)[O-])c1c(Cl)cccc1Cl (centres undefined)', '> 100 µM (inactive)'),
  ('CCCCCCCCCCCCOC(=S)NCCCC', '27.5 µM (inactive)'),
  ('CCOC(=O)NC(=S)NN(C)C1=NCC(C)(C)S1', '> 100 µM (inactive)');

---

Tested on: HL-60
experiment-description: NCI tumour cell line growth inhibition, 48 h
Calls of active or inactive are those of the source. Cut-off read from the data, not from the text of the source: active = GI50 up to about 1.1 µM and inactive = higher.
Outcomes: active, inactive

INSERT INTO assay_data (molecule, system_under_test, assigned_class) VALUES
  ('Cc1cccc(NC(=O)CSc2nnc(-c3ccc(/N=C\c4ccc(Cl)cc4)cc3)o2)c1', 'HL-60', 'inactive'),
  ('CCCCCCCCCCCCCCCC(=O)N[C@H]1CCc2cc(OC)c(OC)c(OC)c2-c2ccc(SC)c(=O)cc21', 'HL-60', 'active'),
  ('COc1cc(C(=O)c2cocc2C(=O)c2ccc3c(c2)OCO3)cc(OC)c1OC', 'HL-60', 'active'),
  ('CCN(CC)C(=S)SC1C(=O)NC(=O)NC1=O', 'HL-60', 'inactive'),
  ('O=c1cnn(C/C=C/CBr)c(=O)[nH]1', 'HL-60', 'inactive'),
  ('CC(C)(C)C1C=C(Sc2ccccc2)C(=O)O1 (configuration not stated)', 'HL-60', 'inactive'),
  ('CC(=O)OCCOCNC(=S)N/N=C/c1ccc([N+](=O)[O-])s1', 'HL-60', 'inactive');
